# target.or.system: beta-catenin/TCF4 engagement (Homo sapiens, UniProt P35222)
# Construct: expressed in transfected cells; host or cells: HEK293
# Sequence (P35222 whole entry): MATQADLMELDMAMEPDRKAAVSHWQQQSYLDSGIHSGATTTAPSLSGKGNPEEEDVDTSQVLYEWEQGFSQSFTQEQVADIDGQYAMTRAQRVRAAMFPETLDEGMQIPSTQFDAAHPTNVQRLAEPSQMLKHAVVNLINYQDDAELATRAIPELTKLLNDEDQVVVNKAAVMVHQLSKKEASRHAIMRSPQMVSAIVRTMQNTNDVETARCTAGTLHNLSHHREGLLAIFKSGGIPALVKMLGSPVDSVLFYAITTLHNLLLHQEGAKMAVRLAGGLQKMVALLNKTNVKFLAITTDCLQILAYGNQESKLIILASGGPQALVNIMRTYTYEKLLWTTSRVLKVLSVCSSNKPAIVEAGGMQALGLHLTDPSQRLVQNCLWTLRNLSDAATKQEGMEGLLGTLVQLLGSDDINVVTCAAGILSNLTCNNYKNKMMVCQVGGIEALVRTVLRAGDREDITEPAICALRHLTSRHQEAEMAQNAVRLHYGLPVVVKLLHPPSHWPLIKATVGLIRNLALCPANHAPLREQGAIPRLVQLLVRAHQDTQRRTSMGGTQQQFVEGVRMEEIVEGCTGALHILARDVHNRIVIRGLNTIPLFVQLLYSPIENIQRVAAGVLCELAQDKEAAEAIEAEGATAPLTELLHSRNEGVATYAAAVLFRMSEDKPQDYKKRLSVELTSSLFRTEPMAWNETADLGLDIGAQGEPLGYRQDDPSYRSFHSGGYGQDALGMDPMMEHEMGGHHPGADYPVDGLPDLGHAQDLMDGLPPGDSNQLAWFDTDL
# measurement.notes: Nano-BRET target engagement assay (B-cat-Halo & TCF4-Luc in HEK293 cells)
# Format: cell-based
# test.settings: read-out: NanoBRET Abs IC50
measurement.type: pIC50
# pIC50 is unitless: minus log10 of the molar concentration; print number only

Some solved entries appear below for comparison.
>>> endpoint_value("CCCC[C@@H]1NC(=O)[C@H](Cc2cccc(C(=O)O)c2)NC(=O)[C@H](CC(=O)O)NC(=O)C2(CCCC=CCCCOC(=O)N3CC[C@@](C(=O)N[C@@H](Cc4ccsc4)C(=O)N[C@@H](Cc4csc5ccccc45)C(=O)N[C@@H](CC(C)(C)C)C(N)=O)(C3)NC(=O)[C@H](CC(C)C)NC(=O)[C@H](Cc3ccccc3)NC(=O)[C@H](C)NC1=O)CCCC=CC[C@]1(CCCN1C(C)=O)C(=O)N[C@@H](CC(=O)O)C(=O)N[C@@H](CC(C)(C)C)C(=O)N2 (some centres unmarked)")
4.40
>>> endpoint_value("CC(=O)N1CCC[C@]12CC=CCCCC1(CCCC=CCCCOC(=O)N3CC[C@@](C(=O)N[C@@H](Cc4ccsc4)C(=O)N[C@@H](Cc4csc5ccccc45)C(=O)N[C@@H](CCC(N)=O)C(N)=O)(C3)NC(=O)[C@H](CC(C)C)NC(=O)[C@H](Cc3ccccc3)NC(=O)[C@H](C)NC(=O)[C@H](C)NC(=O)[C@H](CCn3cc(C(C)(C)C(=O)O)nn3)NC(=O)[C@H](CC(=O)O)NC1=O)NC(=O)[C@H](CC(C)(C)C)NC(=O)[C@H](CC(=O)O)NC2=O (some centres unmarked)")
4.82
>>> endpoint_value("CC(=O)N1CCC[C@]12CC=CCCCC1(CCCC=CCCCOC(=O)N3CC[C@@](C(=O)N[C@@H](Cc4ccsc4)C(=O)N[C@@H](Cc4csc5ccccc45)C(=O)N[C@@H](CCC(N)=O)C(N)=O)(C3)NC(=O)[C@H](CCO)NC(=O)[C@H](Cc3cccc(C(=O)O)c3)NC(=O)[C@H](C)NC(=O)[C@H](C)NC(=O)[C@H](CCc3ccc(O)cc3)NC(=O)[C@H](CC(=O)O)NC1=O)NC(=O)[C@H](CC(C)(C)C)NC(=O)[C@H](CC(=O)O)NC2=O (some centres unmarked) [I-2116]")
4.48

Exercise: Which pIC50 reading was recorded for the molecule CC(=O)N1CCC[C@]12CC=CCCCC1(CCCC=CCCCOC(=O)N3CC[C@@](C(=O)N[C@@H](Cc4ccccc4Cl)C(=O)N[C@@H](Cc4csc5ccccc45)C(N)=O)(C3)NC(=O)[C@H](CC(C)C)NC(=O)[C@H](Cc3ccccc3)NC(=O)[C@H](C)NC(=O)[C@H](C)NC(=O)[C@H](Cc3cccc(C(=O)O)c3)NC(=O)[C@H](CC(=O)O)NC1=O)NC(=O)[C@H](CC(C)(C)C)NC(=O)[C@H](CC(=O)O)NC2=O (some centres unmarked) ?
Solution: 5.31

* * *

# measurement.notes: Solubility in PBS
# Type: physicochemical
# test.settings: Solubility (uM)
measurement.type: Solubility (µM)
Your answer is read as µM, so omit the unit and give the number.

>>> endpoint_value("CC(=O)N1CCC[C@]12CC=CCCCC1(CCCC=CCCCCCC[C@@](C)(C(=O)N[C@@H](Cc3ccsc3)C(=O)N[C@@H](Cc3csc4ccccc34)C(=O)N[C@@H](Cc3c[nH]cn3)C(N)=O)NC(=O)[C@H](CC(N)=O)NC(=O)[C@H](Cc3ccccc3)NC(=O)[C@H](C)NC(=O)[C@H](C)NC(=O)[C@H](CN(CC(=O)O)CC(F)(F)F)NC(=O)[C@H](CC(=O)O)NC1=O)NC(=O)[C@H](CC(C)(C)C)NC(=O)[C@H](CC(=O)O)NC2=O (stereo partly drawn)")
25
>>> endpoint_value("CC(=O)N1CCC[C@]12CC=CCCCC1(CCCC=CCCCCCC[C@@](C)(C(=O)N[C@@H](Cc3ccccc3[N+](=O)[O-])C(=O)N[C@@H](Cc3csc4ccccc34)C(=O)N[C@@H](CCC(N)=O)C(N)=O)NC(=O)[C@H](CC(N)=O)NC(=O)[C@H](Cc3ccccc3)NC(=O)[C@H](C)NC(=O)[C@H](C)NC(=O)[C@H](CCC(=O)O)NC(=O)[C@H](CC(=O)O)NC1=O)NC(=O)[C@H](C)NC(=O)[C@H](CC(=O)O)NC2=O (stereo partly drawn)")
38

Next:
Exercise: Suppose we examine the compound CCCC(=O)NCCCC[C@@H]1NC(=O)[C@H](C)NC(=O)[C@H](CC(=O)O)NC(=O)[C@H](CC(=O)O)NC(=O)C2(CCCC=CCCCOC(=O)N3CC[C@@](C(=O)N[C@@H](Cc4ccsc4)C(=O)N[C@@H](Cc4csc5ccccc45)C(=O)N[C@@H](CCC(N)=O)C(N)=O)(C3)NC(=O)[C@H](CC(N)=O)NC(=O)[C@H](Cc3ccccc3)NC1=O)CCCC=CC[C@]1(CCCN1C(C)=O)C(=O)N[C@@H](CC(=O)O)C(=O)N[C@@H](CC(C)(C)C)C(=O)N2 (stereo partly drawn) ; what Solubility value has been reported?
Solution: 43
